Kindly supply the reported MRT values for the records listed here.
# RUN_DESCRIPTION: Pharmacokinetic study of dalbavancin components in rat plasma after IV dalbavancin hydrochloride (UHPLC-MS/MS)
# TEST_CONTEXT: both, Sprague-Dawley, rat, iv, 40 mg/kg, MRT(0–t), D28, multiple-dose group, daily for 28 days, SD rats, IV 40 mg/kg dalbavancin hydrochloride, mean ± SD, n = 10
Answers are plain numbers, in h.

Solved entries (count: 3):
{"COMPOUND": "CC(C)CCCCCCCCC(=O)N[C@H]1[C@H](Oc2c3cc4cc2Oc2ccc(cc2Cl)[C@@H](O)[C@@H]2NC(=O)[C@H](NC(=O)[C@@H]4NC(=O)[C@H]4NC(=O)[C@@H](Cc5ccc(cc5)O3)NC(=O)[C@H](N(C)C)c3ccc(O)c(c3)Oc3cc(O)c(Cl)c4c3)c3ccc(O)c(c3)-c3c(O[C@H]4O[C@H](CO)[C@@H](O)[C@H](O)[C@@H]4O)cc(O)cc3[C@@H](C(=O)NCCCN(C)C)NC2=O)O[C@H](C(=O)O)[C@@H](O)[C@@H]1O [B2]", "UNIT_OF_MEASUREMENT": "h", "MRT": 55.7}
{"COMPOUND": "CN[C@H]1C(=O)N[C@@H]2Cc3ccc(cc3)Oc3cc4cc(c3O[C@@H]3O[C@H](C(=O)O)[C@@H](O)[C@H](O)[C@H]3NC(=O)CCCCCCCC(C)C)Oc3ccc(cc3Cl)[C@@H](O)[C@@H]3NC(=O)[C@H](NC(=O)[C@@H]4NC(=O)[C@@H](NC2=O)c2cc(cc(O)c2Cl)Oc2cc1ccc2O)c1ccc(O)c(c1)-c1c(O[C@H]2O[C@H](CO)[C@@H](O)[C@H](O)[C@@H]2O)cc(O)cc1[C@@H](C(=O)NCCCN(C)C)NC3=O [A0]", "UNIT_OF_MEASUREMENT": "h", "MRT": 60.7}
{"COMPOUND": "CCCCCCCCCCCC(=O)N[C@H]1[C@H](Oc2c3cc4cc2Oc2ccc(cc2Cl)[C@@H](O)[C@@H]2NC(=O)[C@H](NC(=O)[C@@H]4NC(=O)[C@H]4NC(=O)[C@@H](Cc5ccc(cc5)O3)NC(=O)[C@H](NC)c3ccc(O)c(c3)Oc3cc(O)c(Cl)c4c3)c3ccc(O)c(c3)-c3c(O[C@H]4O[C@H](CO)[C@@H](O)[C@H](O)[C@@H]4O)cc(O)cc3[C@@H](C(=O)NCCCN(C)C)NC2=O)O[C@H](C(=O)O)[C@@H](O)[C@@H]1O [B1]", "UNIT_OF_MEASUREMENT": "h", "MRT": 68.6}

Now look at this entry.
(Q) For the compound shown here, CCCCCCCCCCC(=O)N[C@H]1[C@H](Oc2c3cc4cc2Oc2ccc(cc2Cl)[C@@H](O)[C@@H]2NC(=O)[C@H](NC(=O)[C@@H]4NC(=O)[C@H]4NC(=O)[C@@H](Cc5ccc(cc5)O3)NC(=O)[C@H](NC)c3ccc(O)c(c3)Oc3cc(O)c(Cl)c4c3)c3ccc(O)c(c3)-c3c(O[C@H]4O[C@H](CO)[C@@H](O)[C@H](O)[C@@H]4O)cc(O)cc3[C@@H](C(=O)NCCCN(C)C)NC2=O)O[C@H](C(=O)O)[C@@H](O)[C@@H]1O [A1] , give the reported MRT.
(A) 53

Where do these numbers come from? They come from paper PMC7570859.
